# method: total protein half-life in vivo (active degradation + dilution); higher = more stable protein
# conditions: wild type E. coli NCM3722; growth: N-lim chemostat; doubling time 6 h
value.kind: total protein half-life in vivo (h)
Return type: number; implicit unit h.

Sample answers from the record:
{"sequence.string": "MHPRFQTAFAQLADNLQSALEPILADKYFPALLTGEQVSSLKSATGLDEDALAFALLPLAAACARTPLSNFNVGAIARGVSGTWYFGANMEFIGATMQQTVHAEQSAISHAWLSGEKALAAITVNYTPCGHCRQFMNELNSGLDLRIHLPGREAHALRDYLPDAFGPKDLEIKTLLMDEQDHGYALTGDALSQAAIAAANRSHMPYSKSPSGVALECKDGRIFSGSYAENAAFNPTLPPLQGALILLNLKGYDYPDIQRAVLAEKADAPLIQWDATSATLKALGCHSIDRVLLA [P0ABF6]", "total protein half-life in vivo / h": 5.04}
{"sequence.string": "MSWQEKINAALDARRAADALRRRYPVAQGAGRWLVADDRQYLNFSSNDYLGLSHHPQIIRAWQQGAEQFGIGSGGSGHVSGYSVVHQALEEELAEWLGYSRALLFISGFAANQAVIAAMMAKEDRIAADRLSHASLLEAASLSPSQLRRFAHNDVTHLARLLASPCPGQQMVVTEGVFSMDGDSAPLAEIQQVTQQHNGWLMVDDAHGTGVIGEQGRGSCWLQKVKPELLVVTFGKGFGVSGAAVLCSSTVADYLLQFARHLIYSTSMPPAQAQALRASLAVIRSDEGDARREKLAALITRFRAGVQDLPFTLADSCSAIQPLIVGDNSRALQLAEKLRQQGCWVTAIRPPTVPAGTARLRLTLTAAHEMQDIDRLLEVLHGNG", "total protein half-life in vivo / h": 3.58}

For the next question, use this sequence.
Prompt line: For "MKRASLLTLTLIGAFSAIQAAWAVDYPLPPTGSRLVGQNQTYTVQEGDKNLQAIARRFDTAAMLILEANNTIAPVPKPGTTITIPSQLLLPDAPRQGIIVNLAELRLYYYPPGENIVQVYPIGIGLQGLETPVMETRVGQKIPNPTWTPTAGIRQRSLERGIKLPPVVPAGPNNPLGRYALRLAHGNGEYLIHGTSAPDSVGLRVSSGCIRMNAPDIKALFSSVRTGTPVKVINEPVKYSVEPNGMRYVEVHRPLSAEEQQNVQTMPYTLPAGFTQFKDNKAVDQKLVDKALYRRAGYPVSVSSGATPAASNAPSVESAQNGEPEQGNMLRVTQ" , what is its reported total protein half-life in vivo?
Response line: 5.2
